Provide the reported selectivity ratio of each item.
Test: Selectivity index, ratio of EC50 for toxicity in human BEAS2B cells to MIC100 for antifungal activity against Candida albicans ATCC 10231
Format: cell-based
Details: BEAS-2B cells, read-out: Selectivity Index
Format: numeric value only, no unit, no commentary.

Please indicate selectivity ratio recorded for CCCCCCC(O)(Cn1cncn1)c1ccc(Cl)cc1 (stereo not drawn)
16

Please indicate selectivity ratio recorded for CCCCCCCCC(O)(Cn1cncn1)c1ccc(F)cc1F (stereo not drawn)
7

Please indicate selectivity ratio recorded for CCCCCC(O)(Cn1cncn1)c1ccccc1F (stereo not drawn)
8

---

Assay: Selectivity index, ratio of EC50 for toxicity in human BEAS2B cells to MIC50 for antifungal activity against ITC and FLC-resistant Candida albicans ATCC 1237
Assay type: cell-based
Conditions: BEAS-2B cells, read-out: Selectivity Index
One threshold, 8, splits the recorded selectivity ratio values: lower ones are Y, equal or higher ones are N.

Find out if reported selectivity ratio for CC[C@@H]([C@H](C)O)n1ncn(-c2ccc(N3CCN(c4ccc(OC[C@@H]5CO[C@@](Cn6cncn6)(c6ccc(F)cc6F)C5)cc4)CC3)cc2)c1=O is less than 8
Y

Find out if reported selectivity ratio for CCCC(O)(Cn1cncn1)c1ccc(Cl)cc1Cl (configuration not stated) is less than 8
Y

Find out if reported selectivity ratio for CCCCCC(O)(Cn1cncn1)c1ccccc1F (configuration not stated) is less than 8
N

Find out if reported selectivity ratio for CCCCCC(O)(Cn1cncn1)c1ccc(F)cc1F (configuration not stated) is less than 8
Y

Find out if reported selectivity ratio for CCCCC(O)(Cn1cncn1)c1ccc(F)cc1F (configuration not stated) is less than 8
Y

Find out if reported selectivity ratio for CCCCCCC(O)(Cn1cncn1)c1ccc(F)cc1F (configuration not stated) is less than 8
N

Find out if reported selectivity ratio for CCCCCCC(O)(Cn1cncn1)c1ccc(Cl)cc1Cl (configuration not stated) is less than 8
N

Find out if reported selectivity ratio for CCCCCCC(O)(Cn1cncn1)c1ccccc1Cl (configuration not stated) is less than 8
N

Find out if reported selectivity ratio for CCCCCC(O)(Cn1cncn1)c1ccc(F)cc1 (configuration not stated) is less than 8
N

Find out if reported selectivity ratio for CCCCCCCCC(O)(Cn1cncn1)c1ccc(F)cc1F (configuration not stated) is less than 8
Y

---

Assay: in vitro
Settings: mouse, erythrocyte
Description: Hemolytic activity in mouse erythrocytes assessed as hemolysis level at 62.5 ug/ml incubated for 1 hr at 37 degC
ENDPOINT NAME: hemolysis at 1 h (%)
Kindly answer with a numeric value in %, unit omitted.

Please indicate hemolysis at 1 h recorded for C[C@@H]1[C@H](O)[C@@H](C)/C=C/C=C/C=C/C=C/C=C/C=C/C=C/[C@H](O[C@@H]2O[C@H](C)[C@@H](O)[C@H](N)[C@@H]2O)C[C@@H]2O[C@](O)(C[C@@H](O)C[C@@H](O)[C@H](O)CC[C@@H](O)C[C@@H](O)CC(=O)O[C@H]1C)C[C@H](O)[C@H]2C(=O)O
90.3

---

Test: Selectivity index, ratio of EC50 for toxicity in human BEAS2B cells to MIC50 for antifungal activity against Aspergillus terreus ATCC MYA-3633
Format: cell-based
Conditions: read-out: Selectivity Index
ENDPOINT NAME: selectivity ratio
Format: numeric value only, no unit, no commentary.

Please indicate selectivity ratio recorded for CC[C@@H]([C@H](C)O)n1ncn(-c2ccc(N3CCN(c4ccc(OC[C@@H]5CO[C@@](Cn6cncn6)(c6ccc(F)cc6F)C5)cc4)CC3)cc2)c1=O
54
